assay.target: Epidermal growth factor receptor (Homo sapiens, UniProt P00533)
Sequence (P00533 whole entry): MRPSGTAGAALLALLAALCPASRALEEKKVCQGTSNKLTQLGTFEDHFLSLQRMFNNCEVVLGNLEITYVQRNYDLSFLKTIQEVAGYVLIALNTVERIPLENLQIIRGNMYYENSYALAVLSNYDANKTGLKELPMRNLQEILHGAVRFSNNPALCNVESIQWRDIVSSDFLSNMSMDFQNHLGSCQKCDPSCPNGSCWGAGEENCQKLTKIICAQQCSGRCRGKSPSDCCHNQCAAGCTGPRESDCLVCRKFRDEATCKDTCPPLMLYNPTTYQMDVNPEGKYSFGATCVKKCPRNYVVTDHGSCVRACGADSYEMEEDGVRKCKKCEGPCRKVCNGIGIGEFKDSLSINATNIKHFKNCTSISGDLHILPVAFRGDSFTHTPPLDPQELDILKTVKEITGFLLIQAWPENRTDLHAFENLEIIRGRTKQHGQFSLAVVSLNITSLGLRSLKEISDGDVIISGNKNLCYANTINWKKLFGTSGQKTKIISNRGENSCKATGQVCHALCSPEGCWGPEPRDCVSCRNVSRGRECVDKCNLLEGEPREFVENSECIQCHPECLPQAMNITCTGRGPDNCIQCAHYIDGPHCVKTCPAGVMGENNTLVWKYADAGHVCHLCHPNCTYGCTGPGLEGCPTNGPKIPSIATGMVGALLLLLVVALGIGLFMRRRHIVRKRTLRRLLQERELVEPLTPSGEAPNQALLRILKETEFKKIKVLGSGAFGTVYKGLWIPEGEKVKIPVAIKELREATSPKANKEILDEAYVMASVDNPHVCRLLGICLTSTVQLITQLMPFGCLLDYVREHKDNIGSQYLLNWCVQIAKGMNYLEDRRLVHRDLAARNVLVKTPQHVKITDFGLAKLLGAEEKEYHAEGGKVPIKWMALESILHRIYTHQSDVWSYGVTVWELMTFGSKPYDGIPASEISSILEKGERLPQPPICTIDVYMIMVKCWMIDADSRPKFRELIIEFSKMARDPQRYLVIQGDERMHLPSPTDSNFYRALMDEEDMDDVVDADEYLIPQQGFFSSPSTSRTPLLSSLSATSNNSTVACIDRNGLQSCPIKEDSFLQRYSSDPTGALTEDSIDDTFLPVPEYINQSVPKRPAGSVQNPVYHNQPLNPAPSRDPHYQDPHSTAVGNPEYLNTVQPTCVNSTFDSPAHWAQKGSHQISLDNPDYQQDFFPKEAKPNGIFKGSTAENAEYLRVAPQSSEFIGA
pIC50: −log10 of the molar value.
assay.endpoint: pIC50

In [3]: df
Out[3]:
                              line_notation  assay_endpoint  experimental_value
0  CCN(CC)CCCNc1nc(-c2ccc(NC(=O)Nc3ccc(Cl)cc3)cc2)nc2ccsc12           pIC50              < 5.00

* * *

Some compounds, each annotated with its measured IC50.
Tested on: MDA-MB-231
assay.comment: Cytotoxicity against human MDA-MB-231 cells after 72 hrs by MTT assay
Assay type: functional, cell-based
details: MDA-MB-231, 72 h
assay.endpoint: IC50 (nM)

                              line_notation  assay_endpoint  unit_label  experimental_value
0  CN(C)CCCNc1nc(-c2ccc(NC(=O)Nc3ccccc3F)cc2)nc2ccsc12            IC50          nM                 660
1  CCN(CC)CCNc1nc(-c2ccc(NC(=O)Nc3ccc(Cl)cc3Cl)cc2)nc2c(Cl)c(Cl)sc12            IC50          nM                1920
2  CCN(CC)CCNc1nc(-c2ccc(NC(=O)Nc3ccccc3Cl)cc2)nc2c(Cl)c(Cl)sc12            IC50          nM                1410
